Target: T1, GFP-9S library array, motif 4 ND N98G;D124N (synthetic construct, N98G;D124N)
T1 chain: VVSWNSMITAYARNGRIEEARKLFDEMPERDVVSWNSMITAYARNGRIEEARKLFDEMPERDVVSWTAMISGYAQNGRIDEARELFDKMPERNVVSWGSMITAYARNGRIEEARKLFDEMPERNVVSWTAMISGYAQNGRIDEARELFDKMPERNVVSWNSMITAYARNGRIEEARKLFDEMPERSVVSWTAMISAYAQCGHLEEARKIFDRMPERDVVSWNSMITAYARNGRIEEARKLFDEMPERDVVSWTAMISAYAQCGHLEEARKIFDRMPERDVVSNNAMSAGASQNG
Experiment: high-throughput RNA pulldown from lysate on Ni-NTA beads; HRP: 50 mM Tris pH 8, 150 mM NaCl, 1 mM beta-mercaptoethanol, 50 ug/ml BSA, 3 ug/ml yeast RNA, 0.5% heparin; ITC and FP: Tris pH 8, 200 mM KCl, 5% glycerol; MST: 50 mM Tris pH 8, 200 mM NaCl, 1 mM DTT, BSA, heparin, 0.05% Tween 20
Settings: tags: N-terminal His-eGFP; label: 5' IRDye 800CW
property label: Kd (nM)
Give bare numbers, in nM.

[[record]]
binder = "AUUAUACGUGA (ssRNA) [IR-rpoA-U]"
property_label = "Kd"
reported = 82.7


Okay, now this binder:
GET /value?item= AUUAAACGUGA (ssRNA) [IR-rpoA-A] &field=Kd returns 41.2
